systemUnderTest: Human IP6K1 (Homo sapiens)
Construct: GST (N, cleaved yes); made in house; host or cells: C43 E. coli, pGEX-6P-2
protocol: IP6K1 high-throughput screen of the Sigma LOPAC (ADP-Glo Max, single point);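 also: final compound concentration 10µM in 5% DMSO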
Format: biochemical
measurementConditions: LOPAC single-point screen, Z-score against plate average and StDev
Where a name gives a salt, the structure may show the parent alone.
Use satisfied when the recorded Z-score is no lower than 0.2; use not satisfied when it is lower.

In [3]: df
Out[3]:
                                   compound          class
0  CCN(c1nc(N)c(C(=O)NC(=N)N)nc1Cl)C(C)C [5-(N-Ethyl-N-isopropyl)amiloride]  not satisfied

Problem: Determine whether measured Z-score meets or exceeds 0.2 for CC(C)NC(C)Cc1ccc(I)cc1 (centres unmarked) [Iofetamine hydrochloride]
Solution: not satisfied

Problem: For this compound, is measured Z-score 0.2 or higher? Cl.Clc1ccc(N2CCN(Cc3c[nH]c4ncccc34)CC2)cc1 [L-745,870 hydrochloride]
Solution: satisfied

Problem: Hello, I need to know if O=C1NCN(c2ccccc2)C12CCN(CC1COc3ccccc3O1)CC2 (centres unmarked) [Spiroxatrine] has measured Z-score not below 0.2. Thanks!
Solution: not satisfied

Problem: Is reported Z-score greater than or equal to 0.2 here: O=C(CCCN1CCC(O)(c2cccc(C(F)(F)F)c2)CC1)c1ccc(F)cc1 [Trifluperidol hydrochloride]
Solution: not satisfied

Problem: Is Z-score for COC1(C2=NCCN2)COc2ccccc2O1.Cl (centres unmarked) [RX 821002 hydrochloride] at or above 0.2?
Solution: not satisfied

Problem: Could you verify whether the entry COc1cc(-c2ccc(=O)[nH]n2)ccc1OC(F)F [Zardaverine] shows Z-score of no less than 0.2?
Solution: satisfied

----------
// reported Raw Signal per item
systemUnderTest: Human IP6K1 (Homo sapiens, UniProt Q92551)
Construct: GST (N, cleaved yes); made in house; host or cells: C43 E. coli, pGEX-6P-2
Sequence (Q92551 whole entry): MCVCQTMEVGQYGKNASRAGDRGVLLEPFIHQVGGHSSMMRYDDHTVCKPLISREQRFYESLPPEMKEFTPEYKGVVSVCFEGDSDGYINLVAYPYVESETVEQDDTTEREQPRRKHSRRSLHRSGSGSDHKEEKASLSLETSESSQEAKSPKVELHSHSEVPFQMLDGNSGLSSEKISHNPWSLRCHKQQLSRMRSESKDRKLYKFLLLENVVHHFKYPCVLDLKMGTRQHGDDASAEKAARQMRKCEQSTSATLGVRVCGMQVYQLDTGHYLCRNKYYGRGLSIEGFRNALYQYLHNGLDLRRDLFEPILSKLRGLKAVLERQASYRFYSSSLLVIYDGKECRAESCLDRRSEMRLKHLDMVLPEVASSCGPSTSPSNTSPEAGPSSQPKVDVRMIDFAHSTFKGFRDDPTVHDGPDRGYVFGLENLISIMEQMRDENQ
protocol: IP6K1 high-throughput screen of the Sigma LOPAC (ADP-Glo Max, single point);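 also: final compound concentration 10µM in 5% DMSO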
Type: biochemical
measurementConditions: Sigma LOPAC single-point screen, ADP-Glo Max raw signal per well
Where a name gives a salt, the structure may show the parent alone.
# respond with the number and nothing more

>>> print(df.to_string())
                      compound  measuredattribute  measvalue
0  Oc1ccc(O)cc1 [Hydroquinone]         Raw Signal      59753

Problem: Identify measured Raw Signal corresponding to O=C(c1ccc2c(c1)OCCO2)N1CCCCC1 [CX 546]
Solution: 57767

Problem: Give a short answer stating reported Raw Signal for Cl.c1ccc2nc(C3=NCCN3)ccc2c1 [BU224 hydrochloride] .
Solution: 61573

Problem: Provide one value: measured Raw Signal of CC(N)=O [Acetamide]
Solution: 63288

Problem: Note down Raw Signal recorded for NCCCCNCCCN [Spermidine trihydrochloride]
Solution: 60576

Problem: Using the record for Cc1scc2c1N(C(=O)CN1CCN(C)CC1)c1ccccc1NC2=O [Telenzepine dihydrochloride] , state its measured Raw Signal.
Solution: 58050

Problem: Supply recorded Raw Signal for O=c1c(-c2ccc(O)cc2)coc2cc(O)ccc12 [Daidzein] here.
Solution: 57311

Problem: Entry C=C(C)[C@H]1CC=C(C(=O)O)CC1 [(-)-Perillic acid] needs its Raw Signal filled in; supply it.
Solution: 58838

Problem: Write down Raw Signal measured for item CP(=O)(O)C1=CCNCC1 [TPMPA]
Solution: 59668

Problem: Dear colleague, please send me the reported Raw Signal for NNCCc1ccccc1 [Phenelzine sulfate] when you can.
Solution: 58733

Problem: Report Raw Signal, nothing else, for this compound: C=C1C(=O)O[C@H]2[C@H]1CC/C(C)=C/CC[C@@]1(C)O[C@@H]21 [Parthenolide]
Solution: 56472
